protocol_notes: Solubility in water
Assay type: physicochemical
test_settings: water, 25 °C, water, free acid of the Example; ˜25° C.; read-out: Solubility, Free acid (μg/ml) @ ˜25° C.
experimental_readout: solubility

INSERT INTO assay_data (molecule, test_value) VALUES
  ('CC(C)(Sc1cc(C(C)(C)C)c(O)c(C(C)(C)C)c1)Sc1cc(C(C)(C)C)c(OCCCC(=O)O)c(C(C)(C)C)c1 [Example 3 free acid, reference compound]', '< 5 µg/mL');

# next molecule below
// query Can you share its solubility? I mean this molecule: CC(C)(Sc1cc(C(C)(C)C)c(O)c(C(C)(C)C)c1)Sc1cc(C(C)(C)C)c(OCC(=O)O)c(C(C)(C)C)c1 [Example 2 free acid, reference compound]
// result < 5 µg/mL

* * *

protocol_notes: Solubility in water
Assay type: physicochemical
test_settings: water, 25 °C, water, meglumine salt; value given in the synthesis example; read-out: Solubility in water
experimental_readout: solubility (µg/mL)
A number alone suffices; assume µg/mL.

// query Can you share its solubility? I mean this compound: CC(C)(Sc1cc(C(C)(C)C)c(O)c(C(C)(C)C)c1)Sc1cc(C(C)(C)C)c(OCC(=O)O)c(C(C)(C)C)c1 [Example 2]
// result 1010

// query Can you share its solubility? I mean this compound: CC(C)(Sc1cc(C(C)(C)C)c(O)c(C(C)(C)C)c1)Sc1cc(C(C)(C)C)c(OCCCC(=O)O)c(C(C)(C)C)c1 [Example 3]
// result 1910

// query Can you share its solubility? I mean this compound: CC(C)(Sc1cc(C(C)(C)C)c(O)c(C(C)(C)C)c1)Sc1cc(C(C)(C)C)c(OC(=O)CCC(=O)O)c(C(C)(C)C)c1 [Example 1]
// result 390

* * *

protocol_notes: Solubility in water
Assay type: physicochemical
test_settings: water, 25 °C, water, meglumine salt of the Example; ˜25° C.; read-out: Solubility (μg/ml) @ ˜25° C.
experimental_readout: solubility (µg/mL)
A number alone suffices; assume µg/mL.

INSERT INTO assay_data (smiles_string, test_value) VALUES
  ('CC(C)(Sc1cc(C(C)(C)C)c(O)c(C(C)(C)C)c1)Sc1cc(C(C)(C)C)c(OC(=O)CCC(=O)O)c(C(C)(C)C)c1', 390),
  ('CC(C)(Sc1cc(C(C)(C)C)c(O)c(C(C)(C)C)c1)Sc1cc(C(C)(C)C)c(OCCCC(=O)O)c(C(C)(C)C)c1', 1910);

// query Can you share its solubility? I mean this molecule: CC(C)(Sc1cc(C(C)(C)C)c(O)c(C(C)(C)C)c1)Sc1cc(C(C)(C)C)c(OCC(=O)O)c(C(C)(C)C)c1
// result 1010
